From: patent US20170355757A1

- target: Cynomolgus monkey C5 (cynomolgus monkey, UniProt A0A2K5U1T1 19-1676)
- experiment: cell-based or functional assay
Recorded measurements of Cyno AP % Max Inhibition, hemolysis assay, 5% serum, one per entry
Quick reminder: number only, in %, skip the unit.

>  <binder>
H4H12171P (antibody, human IgG4, V domains shown, H4H: human IgG4 Fc with S108P hinge mutation) VH: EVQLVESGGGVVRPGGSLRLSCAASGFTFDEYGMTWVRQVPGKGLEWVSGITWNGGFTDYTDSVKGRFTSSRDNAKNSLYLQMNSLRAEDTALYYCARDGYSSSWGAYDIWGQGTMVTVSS VL: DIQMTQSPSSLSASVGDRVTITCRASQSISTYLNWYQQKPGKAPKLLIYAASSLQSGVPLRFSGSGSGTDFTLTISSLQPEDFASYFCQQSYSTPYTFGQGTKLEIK

>  <val>
98.8

$$$$

Then there is this binder:
INPUT: Could you tell me which Cyno AP % Max Inhibition, hemolysis assay, 5% serum is on file for H4H12163P (antibody, human IgG4, V domains shown, H4H: human IgG4 Fc with S108P hinge mutation) VH: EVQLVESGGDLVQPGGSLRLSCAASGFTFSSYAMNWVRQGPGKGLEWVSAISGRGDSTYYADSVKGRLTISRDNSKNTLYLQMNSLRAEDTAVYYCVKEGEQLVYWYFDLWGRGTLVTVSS VL: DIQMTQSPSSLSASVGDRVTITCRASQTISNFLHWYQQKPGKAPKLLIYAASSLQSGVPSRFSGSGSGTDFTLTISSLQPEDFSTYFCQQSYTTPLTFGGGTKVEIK ?
OUTPUT: 98.5
